Exercise: state measured self-cleavage for each of the variants provided.
B1: LINE1-full (parent)
chain: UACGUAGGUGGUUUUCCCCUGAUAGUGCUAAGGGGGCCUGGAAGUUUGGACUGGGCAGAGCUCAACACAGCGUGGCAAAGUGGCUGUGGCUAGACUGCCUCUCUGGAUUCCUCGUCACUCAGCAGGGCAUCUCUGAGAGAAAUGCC

- Variants of: B1
- Protocol text: self-cleavage, relative activity (ratio to wild type); higher = more cleavage; in vitro, sequencing; the parent is a self-cleaving ribozyme

Q: # return recorded self-cleavage for input UACGUAGGUGGUUUUCCCCUGAUAGUGCUAAGGGGGCCUGGAAGUUUGGACUGGGCAGAGCUCAACACAGCGUGGCAAAGUGGCUGUGGCUAGACUGCCUCUCUGGAUUCCUCGUCACUCCGCAGGGCUUCUCUGAGAGAAAUGCC
A: 1.9

Q: # return recorded self-cleavage for input UACGUAGGUGGUUUCCCCCUGAUAGUGCUAAGGGGGCCUGGAAGCUUGGACUGGGCAGAGCUCAACACAGCGUGGCAAAGUGGCUGUGGCUAGACUGCCUCUCUGGAUUCCUCGUCACUCAGCAGGGCAUCUCUGAGAGAAAUGCC
A: 1.55

Q: # return recorded self-cleavage for input UACGUAGGUGGUUUUCCCCUGAUAGUGCUAAGGGGGCCUGGAAGUUUGGACUGGGCAGAGCUCAACACAGCGUGGCAAAGUGGCUGUGGCUAGACUGCCUCUCUGGAUUCCUAGACACUCAGCAGGGCAUCUCUGAGAGAAAUGCC
A: 1.55

Q: # return recorded self-cleavage for input UACGUAGGUGGCUUUCCCCUGAUAGUGCUAAGGGGGCCUGGAAGUUUGGACAGGGCAGAGCUCAACACAGCGUGGCAAAGUGGCUGUGGCUAGACUGCCUCUCUGGAUUCCUCGUCACUCAGCAGGGCAUCUCUGAGAGAAAUGCC
A: 1.41

Q: # return recorded self-cleavage for input UACGUAGGUGGUUUUCCCCUGAUAGUGCUAAGGGGGCCUGGGAGUUUGGACUGGGCAGAGCUCAACACAGCGUGGCAAAGUGGCUGUGGCUAGACUGCCUUUCUGGAUUCCUCGUCACUCAGCAGGGCAUCUCUGAGAGAAAUGCC
A: 1.75

Q: # return recorded self-cleavage for input UACGUAGGUGGUUUUCCCCUGAUAGUGCUAAGGGGGCCUGGAAGUUUGGACUGGGCAGAGCUCUACACAGCGUGGCAAAGUGGCUGUGGCUAGACUGCCUCUCUGGAUUCCUCGUCACUCAGCAGGGCAUCUCUGAGAGGAAUGCC
A: 0.39

Q: # return recorded self-cleavage for input UACGUAGGUGGUUUUCCCCUGAUAGUGCUAAGGGGGCCUGGAAGUUUGGACUGGGCAGAGCUCAACACAGCGUGGCAAAGUGGCUGUGGCUAGACUGCCUCUCUGGAUUCCUCAUCACUCAGCAGGGCAUCUCUGUGAGAAAUGCC
A: 2.15

Q: # return recorded self-cleavage for input UACGUAGGUGGUUUUCCCCUGAUAGUGCUAAGGGGGGCUGGAAGUUUGGACUGGGCAGAGCUCAACACAGCGUGGCAAAGUGGCUGUGGCUAGACUGCCUCUCUGGAUUCCUCGUCACUCAGCAGGGCAUCUCCGAGAGAAAUGCC
A: 0.66

Q: # return recorded self-cleavage for input UACGUAGGUGGUUUUCCCCUGAUAGUGCUAAGGGGGCCUGGAAGUUUGGACUGGGCAGAGCUCAACACAGCGUGGCAAAGUGGCUGUGGCUAGACUGCCCCUCUGGAUUCCUCGUCACUCAGCAGGGCACCUCUGAGAGAAAUGCC
A: 2.16

Q: # return recorded self-cleavage for input UACGUAGGUGGUUUUCCCCUGAUAGUGCUAAGGGGGCCUGGAAGUUUGGACUGGGCAGAGCUCAACACAGCGAGGCAAAGGGGCUGUGGCUAGACUGCCUCUCUGGAUUCCUCGUCACUCAGCAGGGCAUCUCUGAGAGAAAUGCC
A: 1.85

Q: # return recorded self-cleavage for input UACGUAGGUGGUUUUCCCCUGAUAGUGCUAAGGGGGCCUGGAAGUUUGGACUGGGCAGAGCUCAACACAGCGUGGCACAGUGGCUGUGGCUAGACUGCCUCUCUGGAUUCCUCGUCACUCAGCAGGGCAUCUCUGAGAGAGAUGCC
A: 1.74

Q: # return recorded self-cleavage for input UACGUAGGUGGUUUUCCCCUGAUAGUGCUAAGGGGGCCUGGAAGUUUGGACUGGGCAGAGCUCAACACAGCGUGGCAAAGUGGCUGUGGCUAGACCGCCUCUCUGGAUUCCUCGUCACUCAGCAGGGCAUCUCUGGGAGAAAUGCC
A: 0.15

Q: # return recorded self-cleavage for input UACGUAGGUGGUUUUCCCCUGAUAGUGCUAAGGGGGCCUGGAAGUUUGGACUGGGCAGAGCUCAACACAGCGUGGCAAAGUGGCUGUGGCUAGACUGCCUCUCCGGAUUCCUCGUCACUCAACAGGGCAUCUCUGAGAGAAAUGCC
A: 1.54

Q: # return recorded self-cleavage for input UACGUAGGUGGUUUUCCCCUGAUAGUGCUAAGGGGGCCUGGAAGUUUGGACUGGGCAGAGCUCAACACAGCGUGCCAAAGUGGCUGUGGCUAGACUGCCUCUCUGGAUUCCUCGUCACUCAGCAGGGCAUCUCAGAGAGAAAUGCC
A: 0.49

Q: # return recorded self-cleavage for input UACGUAGGUGGUUUUCCCCUGAUAGUGCUAAGGGGGCCUGGAAGUUUGGACUGGGCAGAGCUCAACACAGCGUGGCAAAGUGGCUGUGGCUAGACUGCCUCUCUGGAUUCCUCGUUACUCAGCACGGCAUCUCUGAGAGAAAUGCC
A: 1.54

Q: # return recorded self-cleavage for input UACGUAGGUGGUUUUCCCCUGAUAGUGCUAAGGGGGCCUGGAAGUUUGGACUGGGCAGAGCUCAACUCAGCGUGGCAAUGUGGCUGUGGCUAGACUGCCUCUCUGGAUUCCUCGUCACUCAGCAGGGCAUCUCUGAGAGAAAUGCC
A: 0.21

Q: # return recorded self-cleavage for input UACGUAGGUGGUUCUCCCCUGAUAGUGCUAAGGGGGCCUGGAAGUUUGGACUGAGCAGAGCUCAACACAGCGUGGCAAAGUGGCUGUGGCUAGACUGCCUCUCUGGAUUCCUCGUCACUCAGCAGGGCAUCUCUGAGAGAAAUGCC
A: 0.71

Q: # return recorded self-cleavage for input UACGUAGGUGGUUUUCCCCUGAUAGUGCCAAGGGGGCCUGGAAGUUUGGACUGGGCAGAGCUCAACACAGCGUGGCAAAGUGGCUGUGGCUAGACUGCCUCUCUGGAUUCCUCGUCACUCAGCCGGGCAUCUCUGAGAGAAAUGCC
A: 1.23

Q: # return recorded self-cleavage for input UACGUAGGUGGUUUUUCCCUGAUAGUGCUAAGGGGGCCUGGAAGUUUGGACCGGGCAGAGCUCAACACAGCGUGGCAAAGUGGCUGUGGCUAGACUGCCUCUCUGGAUUCCUCGUCACUCAGCAGGGCAUCUCUGAGAGAAAUGCC
A: 1.47

Q: # return recorded self-cleavage for input UACGUAGGUGGUUUUCCCCUGAUAGUGCUAAGGGGGCCUGGAAGUUUGGACUGGGCAGAGCUCAACACAGCGUGGCAAAGUGGCGGUGGCUAGACUGCCUCUCUGGAUUCCUCGUCACACAGCAGGGCAUCUCUGAGAGAAAUGCC
A: 0.19

Q: # return recorded self-cleavage for input UACGUAGGUGGUUUUCCCCUGAUAGUGCUAAGGGGGCCUGGAAGUUUGGACUGGGCAGAGCUCAAGACAGCGUGGCAAAGUGGCUGUGGCUAGACUGCCUCUCUGGAUUCCUCGUCGCUCAGCAGGGCAUCUCUGAGAGAAAUGCC
A: 0.08

Q: # return recorded self-cleavage for input UACGUAGGUGGUUUUCCCCUGAUAGUGCUAAGGGGGCCUGGAAGUUUGGACUGGGCAGAGCUCAGCACAGCGUGGCAAAGUGGCUGUGGCUAGACUGCCCCUCUGGAUUCCUCGUCACUCAGCAGGGCAUCUCUGAGAGAAAUGCC
A: 0.06
